# assay.explanation: NCI Yeast Anticancer Drug Screen. Data for the mec2-1 strain (AID 157)
# conditions.used: S. cerevisiae mec2-1 strain, at 5.0 µM (retest, dose inferred, filed as 0.5)
The panel holds about 79,000 compounds, 15% with a hit somewhere; the sample as a whole holds those more often. The source made the active and inactive calls. No stated cut-off is given here; in the data, active means growth inhibition above about 70%; inactive means the rest.
Labels: active, inactive

compound: CCCCCCCCC(Sc1n[nH]c(=O)[nH]c1=O)C(=O)OCC (stereo unspecified)
discrete.label: inactive
--
compound: CO[C@H](C(=O)[C@@H](O)[C@@H](C)O)[C@@H]1Cc2cc3cc(OC4CC(OC5CC(O)C(O)C(C)O5)C(O)C(C)O4)c(C)c(O)c3c(O)c2C(=O)[C@H]1OC1CC(OC2CC(OC3CC(C)(O)C(O)C(C)O3)C(O)C(C)O2)C(O)C(C)O1 (stereo partly specified)
discrete.label: inactive
--
compound: Nc1ccc([N+](=O)[O-])c(S(=O)(=O)O)c1
discrete.label: inactive
--
compound: Nc1nc(-c2ccccn2)cc2ccccc12
discrete.label: inactive
--
compound: Cc1c(Cl)cccc1NC(=O)CC1Sc2ccccc2NC1=O (stereo unspecified)
discrete.label: inactive
--
compound: Nc1nc(N)c2c(Cl)c(CNc3ccc(Cl)c(Cl)c3)ccc2n1
discrete.label: active

---

# assay.explanation: NCI Yeast Anticancer Drug Screen. Data for the mec2-1 strain (AID 157)
# conditions.used: S. cerevisiae mec2-1 strain, at 5.0 µM (retest, dose inferred, filed as 0.5), active compounds read high
# Experimental: Growth inhibition of yeast strains with defined genetic alterations is measured as a screen for potential anti-cancer activity. Selected strains with alterations in DNA damage repair or cell cycle control were exposed to compounds and growth inhibition was measured relative to vehicle treated controls. The strain used in this assay is mec2-1
This is part of a sample that, as a whole, favours compounds with a hit. Of some 79,000 tested, about 15% had one in any assay.

molecule: Clc1nc2nc(Cl)c(Cl)n2nc1Cl
growth inhibition (%): -3
--
molecule: O=c1[nH]c(SCc2c(Cl)c(Cl)c(Cl)c(Cl)c2Cl)nc(=S)[nH]1
growth inhibition (%): 10
--
molecule: NNc1ccc2ccccc2c1
growth inhibition (%): 4
--
molecule: CN(C)c1ccc(/C=C/c2ccc3ccccc3[n+]2C)cc1
growth inhibition (%): 3
--
molecule: CCCC(C)NCCOC(=O)C(c1ccccc1)C1CCCCC1 (centres undefined)
growth inhibition (%): 3
--
molecule: COc1ccccc1NC(=O)C(/C=N/C(=S)NCCNc1ccc(OC)c(OC)c1)=C(\C)O
growth inhibition (%): -55
--
molecule: CCCCCC(C)c1ccc(O)c(C)c1 (centres undefined)
growth inhibition (%): 49
--
molecule: Fc1ccc2nc3ccccc3nc2c1
growth inhibition (%): 5
--
molecule: CCCCCCCCCCCCN1C(=O)[N+](C)(C)N=C1[O-]
growth inhibition (%): 4
--
molecule: CCCCCCCCCCCCCCCC[N+](C)(C)Cc1cnc[nH]1
growth inhibition (%): 99
--
molecule: CC[C@](O)(CC(=O)O[C@H]1C(=O)O[C@@H]2C[C@H]3C(C)=CC(=O)[C@@H](O)[C@]3(C)[C@H]3[C@@]4(O)OC[C@]32[C@@H]1[C@@H](C)[C@H]4O)C(C)C
growth inhibition (%): 35
--
molecule: COc1ccc2[nH]c3c(C)c4ccncc4c(C)c3c2c1
growth inhibition (%): 40
--
molecule: Cc1cc(C)nc(NS(=O)(=O)c2ccc(Nc3c4ccccc4nc4c(C(=O)NCCCN(CCO)CCO)cccc34)cc2)n1
growth inhibition (%): -13
--
molecule: CCSC(=NC)Nc1ccc(Oc2ccc(Cl)cc2)cc1
growth inhibition (%): 39
--
molecule: O=C1OC2=C(c3ccccc3)CCCC2C1=O (centres undefined)
growth inhibition (%): 3
--
molecule: Nc1nccnc1C(=O)O
growth inhibition (%): -49
--
molecule: NC(CC(=O)O)C(=O)O (centres undefined)
growth inhibition (%): -10
--
molecule: CC(C)(C)OC(=O)NOc1ccc([N+](=O)[O-])cc1[N+](=O)[O-]
growth inhibition (%): 4
--
molecule: O=C(/C=C/c1ccc(Cl)cc1)NC1C=Nc2ccc([N+](=O)[O-])cc2NC1=O (centres undefined)
growth inhibition (%): -27
--
molecule: CN(C)/C=C1\CCc2ccc([N+](=O)[O-])cc2C1=O
growth inhibition (%): 17
--
molecule: OC1(C2C=CC=C2)c2ccccc2C=Cc2ccccc21
growth inhibition (%): 13
--
molecule: COc1cccc(NC(=S)C(C#N)C(=O)Nc2cccc(C(F)(F)F)c2)c1 (centres undefined)
growth inhibition (%): 74
--
molecule: C/C(=N\O)c1cc(Br)cc([N+](=O)[O-])c1O
growth inhibition (%): 7
--
molecule: Cc1nc(N=C(N)N)nc2ccc3ccccc3c12
growth inhibition (%): 43

---

# assay.explanation: NCI Yeast Anticancer Drug Screen. Data for the wt2 strain (AID 169);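 further: 0% = growth of vehicle-treated yeast cultures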
# conditions.used: S. cerevisiae wt2 strain growth inhibition; at 100.0 µM
About 79,000 compounds went through this panel and 15% of them were active in at least one assay; those are over-represented in the sample as a whole. The source made the active and inactive calls. No stated cut-off is given here; in the data, active means growth inhibition above about 70%; inactive means the rest.
Labels: active, inactive

compound: CCSC1=C(C)C(=O)c2ccccc2C1=O
discrete.label: active

compound: Cc1nc2cc(Cl)ccc2n1-c1ccccc1
discrete.label: active

compound: Nc1cc2ccccc2cc1Br
discrete.label: active

compound: O=Cc1cc([N+](=O)[O-])ccc1O.[Eu]
discrete.label: active

compound: C[n+]1c2cc(N)ccc2cc2ccc(N)cc21
discrete.label: active

compound: CCO/C=C1\SC(=S)N(c2cccc(O)c2)C1=O
discrete.label: active

compound: Fc1ccccc1-c1ncc(-c2ccccc2)o1
discrete.label: inactive

compound: CCC(C)c1ccc(O)c(C(C)CC)c1 (stereo not drawn)
discrete.label: active

compound: OC(CF)(c1ccc(Cl)cc1)c1ccc(Cl)cc1
discrete.label: active

compound: Cc1c2ccccc2c(C=O)c2ccccc12
discrete.label: active

compound: Cc1ccc(S(=O)(=O)NC2CCCCCCC2)cc1
discrete.label: active

compound: c1ccc2nc3c(ccc4ccccc43)cc2c1
discrete.label: active

compound: Nc1ccccc1Oc1ccc(Cl)cc1Cl
discrete.label: active

---

# assay.explanation: NCI Yeast Anticancer Drug Screen. Data for the bub3 strain (AID 167)
# conditions.used: S. cerevisiae bub3 mutant strain, at 5.0 µM (retest, dose inferred, filed as 0.5)
About 79,000 compounds went through this panel and 15% of them were active in at least one assay; those are over-represented in the sample as a whole. The source made the active and inactive calls. Rule as the data show it: active = growth inhibition above about 70%; inactive = the rest.
Labels: true (1) for active, false (0) for inactive

compound: CS(=O)(=O)OCCN(CCOS(C)(=O)=O)c1ccc(C=Nc2ccc(-c3csc(Cc4ccccc4)n3)cc2)c(Cl)c1
discrete.label: false (0)
//
compound: Cc1ccccc1N=Nc1ccc(N=Nc2ccc(N)nc2N)c(C)c1
discrete.label: false (0)
//
compound: CC(C)C1=CC23CCC4C(C)(C(=O)O)CCCC4(C)C2CC1C1C(=O)OC(=O)C13 (stereo unspecified)
discrete.label: true (1)
//
compound: CS(=O)(=O)OC1CC(n2ccc(=O)[nH]c2=O)OC1COC(c1ccccc1)(c1ccccc1)c1ccccc1 (stereo unspecified)
discrete.label: false (0)
//
compound: CN1C(c2ccccc2)CC(=NO)CC1c1ccccc1 (stereo unspecified)
discrete.label: false (0)
//
compound: CCc1[nH]c(=O)nc(N)c1-c1ccc(N2CCCCC2)c([N+](=O)[O-])c1
discrete.label: false (0)
//
compound: CCCCCCC(CCCCCCCCCCC(=O)OCC(CC)CC)OC(=O)CC (stereo unspecified)
discrete.label: false (0)
//
compound: CCOP(=O)(OCC)C(C)(CC)NC(=O)C(C(F)(F)F)C(F)(F)F (stereo unspecified)
discrete.label: false (0)
//
compound: O=S(c1cc(Br)ccc1O)c1cc(Br)ccc1O
discrete.label: false (0)
//
compound: COC(=O)C1C(O)C(C)C(O)C(C)C=C(C)C2=C3C(=C(C)C(=O)c4c(O)c(c(C)c(OC(C)=O)c43)NC(=O)C(C)=C/C=C\C(C)C(O)C(C)C1O)OCO2 (stereo unspecified)
discrete.label: false (0)
//
compound: CC12CCC3c4ccc(O)cc4CCC3C1CCC2S (stereo unspecified)
discrete.label: false (0)
//
compound: O=[N+]([O-])c1ccc(N/N=C/CC(O)(C(F)(F)F)C(F)(F)F)c([N+](=O)[O-])c1
discrete.label: false (0)
//
compound: Nc1ccc(Cn2ccc3c4c(N)nc(N)nc4ccc32)cc1
discrete.label: false (0)
//
compound: O=Cc1cc([N+](=O)[O-])cc(CCl)c1O
discrete.label: false (0)
//
compound: CCN1/C(=C/C=C/C=C/c2sc3ccccc3[n+]2CC)Sc2ccccc21
discrete.label: true (1)
//
compound: O=C(O)C#CC(=O)O
discrete.label: false (0)
//
compound: O=C(O)c1ccc2c(c1)Cc1cc([N+](=O)[O-])ccc1-2
discrete.label: false (0)
//
compound: COc1cc(C2C(C#N)=C(C)Nc3nc(N)nc(N)c32)cc(OC)c1OC (stereo unspecified)
discrete.label: false (0)
//
compound: CCSSC(=Nc1ccccc1)OCC(C)C
discrete.label: false (0)
//
compound: CC(=O)OCC(=O)[C@H]1CC[C@H]2[C@@H]3CC=C4C[C@@H](O)CC[C@]4(C)[C@H]3CC[C@]12C
discrete.label: false (0)
//
compound: O=c1cc[nH]c2ccccc12
discrete.label: true (1)
